Kindly state total protein half-life in vivo for each of the entries shown.
Experiment: total protein half-life in vivo (active degradation + dilution); higher = more stable protein
Details: wild type E. coli NCM3722; growth: N-lim chemostat; doubling time 6 h
Numbers only, in h.

{"Biosequence": "METRREERIGQLLQELKRSDKLHLKDAAALLGVSEMTIRRDLNNHSAPVVLLGGYIVLEPRSASHYLLSDQKSRLVEEKRRAAKLAATLVEPDQTLFFDCGTTTPWIIEAIDNEIPFTAVCYSLNTFLALKEKPHCRAFLCGGEFHASNAIFKPIDFQQTLNNFCPDIAFYSAAGVHVSKGATCFNLEELPVKHWAMSMAQKHVLVVDHSKFGKVRPARMGDLKRFDIVVSDCCPEDEYVKYAQTQRIKLMY [P0ACK5]", "Endpoint unit": "h", "total protein half-life in vivo": 5.81}
{"Biosequence": "MTITSLDGYRWLKNDIIRGNFQPDEKLRMSLLTSRYALGVGPLREALSQLVAERLVTVVNQKGYRVASMSEQELLDIFDARANMEAMLVSLAIARGGDEWEADVLAKAHLLSKLEACDASEKMLDEWDLRHQAFHTAIVAGCGSHYLLQMRERLFDLAARYRFIWLRRTVLSVEMLEDKHDQHQTLTAAVLARDTARASELMRQHLLTPIPIIQQAMAGN", "Endpoint unit": "h", "total protein half-life in vivo": 1.99}
{"Biosequence": "MMVIRPVERSDVSALMQLASKTGGGLTSLPANEATLSARIERAIKTWQGELPKSEQGYVFVLEDSETGTVAGICAIEVAVGLNDPWYNYRVGTLVHASKELNVYNALPTLFLSNDHTGSSELCTLFLDPDWRKEGNGYLLSKSRFMFMAAFRDKFNDKVVAEMRGVIDEHGYSPFWQSLGKRFFSMDFSRADFLCGTGQKAFIAELMPKHPIYTHFLSQEAQDVIGQVHPQTAPARAVLEKEGFRYRNYIDIFDGGPTLECDIDRVRAIRKSRLVEVAEGQPAQGDFPACLVANENYHHFRVVLVRTDPATERLILTAAQLDALKCHAGDRVRLVRLCAEEKTA [P0AE37]", "Endpoint unit": "h", "total protein half-life in vivo": 2.45}
{"Biosequence": "MELKDYYAIMGVKPTDDLKTIKTAYRRLARKYHPDVSKEPDAEARFKEVAEAWEVLSDEQRRAEYDQMWQHRNDPQFNRQFHHGDGQSFNAEDFDDIFSSIFGQHARQSRQRPATRGHDIEIEVAVFLEETLTEHKRTISYNLPVYNAFGMIEQEIPKTLNVKIPAGVGNGQRIRLKGQGTPGENGGPNGDLWLVIHIAPHPLFDIVGQDLEIVVPVSPWEAALGAKVTVPTLKESILLTIPPGSQAGQRLRVKGKGLVSKKQTGDLYAVLKIVMPPKPDENTAALWQQLADAQSSFDPRKDWGKA", "Endpoint unit": "h", "total protein half-life in vivo": 4.87}

Attention now turns to another entry.
Exercise: Please indicate total protein half-life in vivo recorded for MKILVTGGAGFIGSAVVRHIINNTQDSVVNVDKLTYAGNRESLADVSDSERYVFEHADICDAPAMARIFAQHQPDAVMHLAAESHVDRSITGPAAFIETNIVGTYVLLEAARNYWSALDSDKKNSFRFHHISTDEVYGDLPHPDEVNNTEELPLFTETTAYAPSSPYSASKASSDHLVRAWKRTYGLPTIVTNCSNNYGPYHFPEKLIPLVILNALEGKALPIYGKGDQIRDWLYVEDHARALYTVVTEGKAGETYNIGGHNEKKNIDVVLTICDLLDEIVPKEKSYREQITYVADRPGHDRRYAIDAEKIGRALGWKPQETFESGIRKTVEWYLSNTKWVDNVKSGAYQSWIEQNYEGRQ
Key: 5.85
